# TGT: human CD33 P132N (human, UniProt P20138 18-364)
# Sequence (P20138 18-364 P132N limits assumed): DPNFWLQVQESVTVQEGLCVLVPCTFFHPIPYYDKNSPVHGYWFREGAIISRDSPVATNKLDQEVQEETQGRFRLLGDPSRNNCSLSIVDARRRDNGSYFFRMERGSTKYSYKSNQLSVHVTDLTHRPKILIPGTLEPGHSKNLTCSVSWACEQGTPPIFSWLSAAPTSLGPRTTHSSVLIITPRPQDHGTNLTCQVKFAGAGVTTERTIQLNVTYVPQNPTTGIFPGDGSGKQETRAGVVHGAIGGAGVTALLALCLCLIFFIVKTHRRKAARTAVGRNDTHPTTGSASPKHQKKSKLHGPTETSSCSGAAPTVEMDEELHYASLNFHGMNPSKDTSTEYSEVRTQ
# ASSAY_SUMMARY: flow cytometry, HEK293-T, IgG;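 note: CD33 point mutants transiently expressed, antibody binding measured by fluorescence in duplicate, background subtracted and scaled to binding on wild-type CD33 as 100%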
MEASURE: Mean % WT Binding (% WT binding)
Response body: numeric value in % WT binding, unit text excluded.

The cases that follow already have their Mean % WT Binding on record.
{"columns": ["BINDER", "Mean % WT Binding / % WT binding"],
 "data": [
  ["Refmab #2 (antibody, human IgG1, V domains shown, tested in IgG format) VH: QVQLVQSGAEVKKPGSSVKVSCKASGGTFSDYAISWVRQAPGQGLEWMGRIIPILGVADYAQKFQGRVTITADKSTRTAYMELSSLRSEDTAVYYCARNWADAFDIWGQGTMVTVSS VL: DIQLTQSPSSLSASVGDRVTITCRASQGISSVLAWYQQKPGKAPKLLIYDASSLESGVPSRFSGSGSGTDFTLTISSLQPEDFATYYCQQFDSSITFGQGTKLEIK", 100],
  ["Refmab #4 (antibody, human IgG1, V domains shown, tested in IgG format) VH: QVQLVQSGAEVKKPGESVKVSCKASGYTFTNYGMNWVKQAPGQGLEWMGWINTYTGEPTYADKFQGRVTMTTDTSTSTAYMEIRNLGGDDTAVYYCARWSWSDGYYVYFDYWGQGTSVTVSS VL: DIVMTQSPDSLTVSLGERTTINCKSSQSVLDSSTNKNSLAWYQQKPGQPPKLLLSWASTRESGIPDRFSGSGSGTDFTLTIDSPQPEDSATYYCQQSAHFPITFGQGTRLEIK", 100],
  ["Refmab #3 (antibody, human IgG1, V domains shown, tested in IgG format) VH: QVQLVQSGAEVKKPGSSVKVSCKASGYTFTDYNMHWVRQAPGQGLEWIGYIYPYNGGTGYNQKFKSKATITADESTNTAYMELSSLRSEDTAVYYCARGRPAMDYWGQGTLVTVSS VL: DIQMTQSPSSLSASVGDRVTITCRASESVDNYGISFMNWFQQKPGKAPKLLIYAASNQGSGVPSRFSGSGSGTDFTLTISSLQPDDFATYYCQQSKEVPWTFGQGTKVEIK", 94.5]
]}

Let us examine a further case.
Record Refmab #1 (antibody, human IgG1, V domains shown, tested in IgG format; also called hP67.6) VH: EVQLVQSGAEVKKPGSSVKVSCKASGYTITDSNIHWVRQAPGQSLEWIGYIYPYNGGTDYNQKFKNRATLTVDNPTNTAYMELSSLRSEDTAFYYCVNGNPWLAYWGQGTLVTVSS VL: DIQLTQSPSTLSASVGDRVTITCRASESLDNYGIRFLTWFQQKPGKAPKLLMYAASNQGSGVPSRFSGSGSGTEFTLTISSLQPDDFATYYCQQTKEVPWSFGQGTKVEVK , field Mean % WT Binding: 91.4
